test system: DU-145; test: Tested for growth inhibition activity against prostate DU-145 human cancer cell; type: functional
observation_type: Growth-inhibitory concentration (µg/mL)
Your answer should be a plain number; it is taken to be in µg/mL.

INSERT INTO assay_data (smiles_code, observation_type, readout_unit, assay_value) VALUES
  ('COc1ccc2c(c1)[C@H]1[C@@H](O)[C@H](O)[C@@H](O)[C@@H](O)[C@@H]1NC2=O', 'Growth-inhibitory concentration', 'µg/mL', 2.6);

Query block: Notebook: pull reported Growth-inhibitory concentration for DU-145, entry "COc1ccc2c(c1)[C@@H]1[C@@H](NC2=O)[C@H](OC(C)=O)[C@H](OC(C)=O)[C@@H](OC(C)=O)[C@@H]1OC(C)=O"
Result block: 6.7

Query block: Notebook: pull reported Growth-inhibitory concentration for DU-145, entry "O=C1N[C@@H]2C(=C[C@H](O)[C@@H](O)[C@H]2O)c2cc3c(c(O)c21)OCO3"
Result block: 0.011

Query block: Notebook: pull reported Growth-inhibitory concentration for DU-145, entry "O=C1N[C@H]2[C@H](O)[C@H](O)[C@@H](O)[C@H](O)[C@@H]2c2cc3c(c(O)c21)OCO3"
Result block: 0.016

====

tested on: BXPC-3; assay: Tested for growth inhibition activity against pancreas BXPC-3 human cancer cell; format: functional
The entries below come with measured Growth-inhibitory concentration values attached.
Your answer should be a plain number; it is taken to be in µg/mL.

Example cases with answers are listed next.
INSERT INTO assay_data (compound, observation_type, readout_unit, assay_value) VALUES
  ('O=C1N[C@H]2[C@H](O)[C@H](O)[C@@H](O)[C@H](O)[C@@H]2c2cc3c(c(O)c21)OCO3 [PANCRATISTATIN]', 'Growth-inhibitory concentration', 'µg/mL', 0.028),
  ('COc1ccc2c(c1)[C@H]1[C@@H](O)[C@H](O)[C@@H](O)[C@@H](O)[C@@H]1NC2=O', 'Growth-inhibitory concentration', 'µg/mL', 4.9);

Kindly consider the entry below.
Query block: Notebook: pull reported Growth-inhibitory concentration for BXPC-3, entry O=C1N[C@@H]2C(=C[C@H](O)[C@@H](O)[C@H]2O)c2cc3c(c(O)c21)OCO3 [NARCICLASINE]
Result block: 0.026

====

The entries below come with measured Growth-inhibitory concentration values attached.
test system: DU-145; experiment: Tested for growth inhibition activity against prostate DU-145 human cancer cell; format: functional

Example cases with answers are listed next.
INSERT INTO assay_data (smiles_code, assay_value) VALUES
  ('COC(=O)N[C@H]1[C@H](OC(C)=O)[C@H](OC(C)=O)[C@@H](OC(C)=O)[C@H](OC(C)=O)[C@@H]1c1cccc(OC)c1', '>10 µg/mL'),
  ('O=C1N[C@H]2[C@H](O)[C@H](O)CC[C@@H]2c2cc3c(cc21)OCO3', '>10 µg/mL');

Query block: Quick check: Growth-inhibitory concentration of "CC(=O)O[C@H]1[C@@H]2NC(=O)c3cc4c(cc3[C@H]2CC[C@H]1OC(C)=O)OCO4" ?
Result block: >10 µg/mL
